- system.tested: RBL-1 Cell Cyclooxygenase (Rattus norvegicus)
- Construct: the supernatant was saved as the source of enzymes; endogenous in cells
- assay.text: Procedure II: cyclooxygenase inhibition in disrupted RBL-1 cells (supernatant as enzyme source)
- experimental.parameters: read-out: IC50 CO (Procedure II)
assay.readout: IC50 (nM)

Please review the following examples before continuing.
compound	unit	IC50
COc1ccc(-n2nc(COC(=O)NO)c(Br)c2-c2ccc(Cl)cc2)cc1 [1-D]	nM	300
COc1ccc(-n2nc(CCOC(=O)N(O)C(C)C)cc2-c2ccc(Cl)cc2)cc1 [2-B]	nM	500
COc1ccc(-n2nc(CCOC(=O)N(C)O)cc2-c2ccc(C)cc2)cc1 [2-G]	nM	400

(a) COc1ccc(-n2nc(CCOC(=O)N(C)O)c(Cl)c2-c2ccc(C)cc2)cc1 [2-I]
(b) COc1ccc(-n2nc(COC(=O)N(O)C(C)C)c(Br)c2-c2ccc(C)cc2)cc1 [1-O]
Exercise: For a and b , which recorded IC50 is lower? Please identify the chosen entry by its label.
Solution: a
(a: 2010 nM, b: 3120 nM)

* * *

- system.tested: RBL-1 Cell Cyclooxygenase (Rattus norvegicus, UniProt Q63921)
- Construct: the supernatant was saved as the source of enzymes; endogenous in cells
- Sequence (Q63921 27-602): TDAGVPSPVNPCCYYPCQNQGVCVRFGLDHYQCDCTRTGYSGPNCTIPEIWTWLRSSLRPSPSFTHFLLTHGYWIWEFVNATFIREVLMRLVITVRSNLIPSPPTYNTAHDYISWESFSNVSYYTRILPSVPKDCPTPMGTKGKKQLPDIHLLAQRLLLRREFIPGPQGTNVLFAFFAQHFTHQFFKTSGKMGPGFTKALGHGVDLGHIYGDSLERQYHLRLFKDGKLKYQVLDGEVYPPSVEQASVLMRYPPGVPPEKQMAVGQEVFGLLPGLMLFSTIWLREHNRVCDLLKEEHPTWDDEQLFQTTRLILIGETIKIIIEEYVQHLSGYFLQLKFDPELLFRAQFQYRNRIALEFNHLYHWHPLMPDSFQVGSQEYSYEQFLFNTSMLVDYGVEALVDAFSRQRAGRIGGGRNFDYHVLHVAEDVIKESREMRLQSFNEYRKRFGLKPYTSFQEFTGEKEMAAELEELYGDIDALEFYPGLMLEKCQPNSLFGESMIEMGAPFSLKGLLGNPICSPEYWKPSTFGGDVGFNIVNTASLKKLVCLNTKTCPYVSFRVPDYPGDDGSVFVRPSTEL
- assay.text: Procedure II: cyclooxygenase inhibition in disrupted RBL-1 cells (supernatant as enzyme source)
- experimental.parameters: read-out: IC50 CO (Procedure II)
assay.readout: IC50 (µM)

Please review the following examples before continuing.
given.smiles	system.tested	meas.value
COc1ccc(-n2nc(CCCOC(=O)N(O)C(C)C)c(Br)c2-c2ccc(Cl)cc2)cc1	RBL-1 Cell Cyclooxygenase (Rattus norvegicus, UniProt Q63921)	3.17
COc1ccc(-n2nc(COC(=O)N(O)C(C)C)cc2-c2ccc(C)cc2)cc1	RBL-1 Cell Cyclooxygenase (Rattus norvegicus, UniProt Q63921)	1.7
COc1ccc(-n2nc(CCOC(=O)N(O)C(C)C)c(Br)c2-c2ccc(Cl)cc2)cc1	RBL-1 Cell Cyclooxygenase (Rattus norvegicus, UniProt Q63921)	0.41

(P) COc1ccc(-n2nc(COC(=O)NO)cc2-c2ccc(Cl)cc2)cc1
(Q) COc1ccc(-n2nc(CCCOC(=O)NO)cc2-c2ccc(Cl)cc2)cc1
(R) COc1ccc(-n2nc(COC(=O)N(C)O)cc2-c2ccc(Cl)cc2)cc1
(S) COc1ccc(-n2nc(CCOC(=O)NO)c(Br)c2-c2ccc(C)cc2)cc1
(T) COc1ccc(-n2nc(CCCOC(=O)N(C)O)c(Br)c2-c2ccc(Cl)cc2)cc1
Exercise: Please produce an ascending ranking of these molecules based on IC50. Put the labels in the order asked and list them.
Solution: P, S, R, Q, T
(P: 0.18 µM, S: 0.41 µM, R: 1.4 µM, Q: 3 µM, T: 6.11 µM)
